These measurements were taken from paper PMC7190078.

Experiment: Mouse plasma protein binding assay
Assay type: in vitro ADME
Conditions: both, CD-1, mouse, plasma
quantity-kind: fraction unbound at 6 h

[
  {
    "molecule": "CC(C)(C)c1ccc(CN(C(=O)CN(Cc2c(F)c(F)c(F)c(F)c2F)S(=O)(=O)c2ccc(F)cc2)c2ccc(C(=O)NO)cc2)cc1 [AES-135]",
    "numeric-readout": 0.004
  }
]

====

Experiment: Caco-2 permeability assay
Assay type: in vitro ADME
Details: human

[
  {
    "sample-smiles": "CC(C)(C)c1ccc(CN(C(=O)CN(Cc2c(F)c(F)c(F)c(F)c2F)S(=O)(=O)c2ccc(F)cc2)c2ccc(C(=O)NO)cc2)cc1",
    "Papp A→B at 5 µM": "0.27 ×10⁻⁶ cm/s"
  }
]
